target: Gag-Pol polyprotein [588-1027]/[588-1147] (Human immunodeficiency virus 1); construct: 588-1027; 588-1147; test: HIV-1 RT Assay
pIC50: −log10 of the molar value.
attributeMeasured: pIC50

stdin: Please provide the recorded pIC50 for Cc1c(C(C)(C)C)s/c(=N\S(=O)(=O)c2cc(Cl)ccc2C(N)=O)n1C , tested on Gag-Pol polyprotein [588-1027]/[588-1147] (Human immunodeficiency virus 1).
stdout: < 5.00

stdin: Please provide the recorded pIC50 for Cc1c(C(C)(C)C)s/c(=N\S(=O)(=O)c2cc(Cl)ccc2NS(C)(=O)=O)n1C , tested on Gag-Pol polyprotein [588-1027]/[588-1147] (Human immunodeficiency virus 1).
stdout: < 4.30

stdin: Please provide the recorded pIC50 for CC(=O)Nc1ccc(Cl)cc1S(=O)(=O)/N=c1\sc(C(C)(C)C)c(C)n1C , tested on Gag-Pol polyprotein [588-1027]/[588-1147] (Human immunodeficiency virus 1).
stdout: < 4.30

stdin: Please provide the recorded pIC50 for Cc1c(C(C)(C)C)s/c(=N\S(=O)(=O)c2ccc(O)cc2)n1C , tested on Gag-Pol polyprotein [588-1027]/[588-1147] (Human immunodeficiency virus 1).
stdout: < 5.00

stdin: Please provide the recorded pIC50 for COc1ccc(S(=O)(=O)/N=c2\sc(C(C)(C)C)c(C)n2C)cc1 , tested on Gag-Pol polyprotein [588-1027]/[588-1147] (Human immunodeficiency virus 1).
stdout: < 5.00

stdin: Please provide the recorded pIC50 for COC(=O)c1ccc(Cl)cc1S(=O)(=O)/N=c1\sc(C(C)(C)C)c(C)n1C , tested on Gag-Pol polyprotein [588-1027]/[588-1147] (Human immunodeficiency virus 1).
stdout: < 5.00
